Hey, just so you know, these numbers are from patent US20250092056A1.

tgt: Recombinant SARS-CoV-2 3CL Protease (Severe acute respiratory syndrome coronavirus 2 (2019-nCoV) (SARS-CoV-2))
test method notes: biochemical
Format: biochemical
applied conditions: 50% SARS-CoV-2 3CL protease inhibitory concentration; read-out: IC50
Reported IC50 by item:
observation type: IC50

                                    compound  observation_type        result
 0  N#CCn1c(N2CCCCC2)c(-c2ccc(F)c(Cl)c2)c(=O)n(-c2cncc(Cl)c2)c1=O              IC50       < 10 nM
 1  C[C@@H](C#N)n1c(N2CC[C@@](O)(C(F)F)C2)c(-c2ccc(F)c(F)c2)c(=O)n(-c2cncc(Cl)c2)c1=O (single isomer, unassigned)              IC50       < 10 nM
 2  N#CCn1c(N2CC3(C2)CC(O)(c2ccccc2)C3)c(-c2ccc(F)c(Cl)c2)c(=O)n(-c2cncc(Cl)c2)c1=O              IC50       0.45 nM
 3  N#CCn1c(N2CCN(c3ccccc3)C(=O)C2)c(-c2ccc(F)c(Cl)c2)c(=O)n(-c2cncc(Cl)c2)c1=O              IC50      > 100 nM
 4  CC(C)(F)CCc1c(-c2ccc(F)c(Cl)c2)c(=O)n(-c2cncc(Cl)c2)c(=O)n1CC#N              IC50       < 10 nM
 5  N#CCn1c(N2CC3(C2)CC(F)(F)C3)c(-c2cncc(Cl)c2)c(=O)n(-c2cncc(Cl)c2)c1=O              IC50       < 10 nM
 6  COC1CCN(c2c(Cc3cc(F)c(F)c(F)c3)c(=O)n(-c3cncc(C)c3)c(=O)n2CC#N)C1 (racemic)              IC50       < 10 nM
 7  C[C@](O)(CCc1c(-c2ccc(F)c(Cl)c2)c(=O)n(-c2cncc(Cl)c2)c(=O)n1CC#N)C(F)F (single isomer, unassigned)              IC50       < 10 nM
 8  N#CCn1c(N2CC(OC(F)F)C2)c(-c2ccc(F)c(Cl)c2)c(=O)n(-c2cncc(Cl)c2)c1=O              IC50       < 10 nM
 9  CC(C)(O)Cc1c(-c2ccc(F)c(Cl)c2)c(=O)n(-c2cncc(Cl)c2)c(=O)n1CC#N              IC50       < 10 nM
10  Cc1cncc(-n2c(=O)c(-c3ccc(F)c(Cl)c3)c(/C=C/c3ccc(C(F)(F)F)cc3)n(CC#N)c2=O)c1              IC50  10 to 100 nM
11  Cc1cc(-c2c(-c3ccc(F)c(Cl)c3)c(=O)n(-c3cncc(Cl)c3)c(=O)n2CC#N)on1              IC50       < 10 nM
12  N#CCn1c(N2CC(OC(F)F)C2)c(-c2ccc(F)c(Cl)c2)c(=O)n(-c2cncc(OCF)n2)c1=O              IC50       < 10 nM
13  Cc1cnnc(-n2c(=O)c(Cc3cc(F)c(F)c(F)c3)c(N3Cc4ccccc4C3)n(CC#N)c2=O)c1              IC50       < 10 nM
